FYI, the data here is from patent US20170081338A1.

assay.notes: Compound stability in rat liver microsomes
Format: in vitro ADME
recorded.conditions: pH 7.4; rat liver microsomes 0.5 mg protein/mL, compound 5 μM, NADPH, 37° C.; read-out: Rat T1/2
measurement.kind: half-life at 5 μM (min)
One number for each entry, in min.

Reference set (6 entries):
Cn1cc(Nc2ncc(Cl)c(N[C@@H]3COC4C3OC[C@@H]4NS(=O)(=O)CC(C)(C)C#N)n2)cn1 (some centres unmarked) [Ex. 26]: 40.9
CC(C)S(=O)(=O)N[C@H]1COC2C1OC[C@H]2Nc1nc(Nc2cnn(C)c2)ncc1Cl (some centres unmarked) [Ex. 15]: 91.6
CC(CS(=O)(=O)N[C@H]1COC2C1OC[C@H]2Nc1nc(Nc2cnn(C)c2)ncc1Cl)C(F)(F)F (some centres unmarked) [Ex. 40]: 19.7
Cn1cc(Nc2ncc(Cl)c(N[C@@H]3COC4C3OC[C@@H]4Nc3ccc(C#N)cn3)n2)cn1 (some centres unmarked) [Ex. 23]: 26.6
Cn1cc(Nc2ncc(Cl)c(N[C@@H]3COC4C3OC[C@@H]4NS(=O)(=O)CC(C)(C)O)n2)cn1 (some centres unmarked) [Ex. 41]: 78.7
Cn1cc(Nc2ncc(Cl)c(N[C@@H]3COC4C3OC[C@@H]4NS(=O)(=O)C(C)(C)C)n2)cn1 (some centres unmarked) [Ex. 24]: 78.6

Give half-life at 5 μM for each listed item.
1. Cn1cc(Nc2ncc(Cl)c(N[C@@H]3COC4C3OC[C@@H]4NS(=O)(=O)CC(F)(F)F)n2)cn1 (some centres unmarked) [Ex. 27]
2. Cn1cc(Nc2ncc(Cl)c(N[C@@H]3COC4C3OC[C@@H]4Nc3ccc(C#N)nn3)n2)cn1 (some centres unmarked) [Ex. 3]
3. Cn1cc(Nc2ncc(Cl)c(N[C@@H]3COC4C3OC[C@@H]4NS(=O)(=O)N3CCOCC3)n2)cn1 (some centres unmarked) [Ex. 11]
4. Cn1cc(Nc2ncc(Cl)c(N[C@H]3COC4C3OC[C@H]4NS(=O)(=O)N3CCCC3)n2)cn1 (some centres unmarked) [Ex. 6]

# output
1: 56.5; 2: 22; 3: 121; 4: 37.7

---

assay.notes: Compound stability in human liver microsomes
Format: in vitro ADME
recorded.conditions: pH 7.4; human liver microsomes 0.5 mg protein/mL, compound 5 μM, NADPH, 37° C.; read-out: Human T1/2
Experimental: Human or rat liver microsomes incubations were conducted in duplicate in polypropylene tubes. […] The concentrations of compounds in the incubation mixtures of human or rat liver microsomes were determined by a LC/MS/MS method. The ranges of the linearity in the concentration range were determined for each tested compounds. […]
Values of half-life at 5 μM greater than or equal to 80 min map to YES; values below map to NO.

Solved cases below.
CC(CS(=O)(=O)N[C@H]1COC2C1OC[C@H]2Nc1nc(Nc2cnn(C)c2)ncc1Cl)C(F)(F)F (stereo partly shown) [Ex. 40]: NO
CC(C)=CS(=O)(=O)N[C@H]1COC2C1OC[C@H]2Nc1nc(Nc2cnn(C)c2)ncc1Cl (stereo partly shown) [Ex. 43]: NO
Cn1cc(Nc2ncc(Cl)c(N[C@@H]3COC4C3OC[C@@H]4N3CCCC3=O)n2)cn1 (stereo partly shown) [Ex. 22]: YES
CC(C)S(=O)(=O)N[C@H]1COC2C1OC[C@H]2Nc1nc(Nc2cnn(C)c2)ncc1Cl (stereo partly shown) [Ex. 15]: YES
Cn1cc(Nc2ncc(Cl)c(N[C@@H]3COC4C3OC[C@@H]4NS(=O)(=O)C3CC3)n2)cn1 (stereo partly shown) [Ex. 4]: YES
CC(CS(=O)(=O)N[C@H]1COC2C1OC[C@H]2Nc1nc(Nc2cnn(C)c2)ncc1Cl)C(F)F (stereo partly shown) [Ex. 42]: NO
CC(O)CS(=O)(=O)N[C@H]1COC2C1OC[C@H]2Nc1nc(Nc2cnn(C)c2)ncc1Cl (stereo partly shown) [Ex. 44]: YES
Cn1cc(Nc2ncc(Cl)c(N[C@@H]3COC4C3OC[C@@H]4NS(=O)(=O)N3CCOCC3)n2)cn1 (stereo partly shown) [Ex. 11]: NO

# input In plain terms: is recorded half-life at 5 μM at least 80 min for Cn1cc(Nc2ncc(Cl)c(N[C@H]3COC4C3OC[C@H]4NS(=O)(=O)CC(F)(F)F)n2)cn1 (stereo partly shown) [Ex. 5] ?
# output YES

# input In plain terms: is recorded half-life at 5 μM at least 80 min for Cn1cc(Nc2ncc(Cl)c(N[C@@H]3COC4C3OC[C@@H]4NS(=O)(=O)CC3CCOC3)n2)cn1 (stereo partly shown) [Ex. 16] ?
# output NO

# input In plain terms: is recorded half-life at 5 μM at least 80 min for Cn1cc(Nc2ncc(Cl)c(N[C@@H]3COC4C3OC[C@@H]4NS(=O)(=O)CC(C)(C)O)n2)cn1 (stereo partly shown) [Ex. 41] ?
# output YES
